- System: mice
- Test Method Notes: Neuropharmacological Assay (SmartCube)
- Type: in vivo
- Measurement Context: mice, i.p. 15 min before test, most efficacious dose(s) of 3 doses
Endpoint Label: DP: anti-depressant (SmartCube probability)

Known DP: anti-depressant (SmartCube probability) results, listed for orientation:
| Compound | Study System | Reported Measurement |
| --- | --- | --- |
| CNC[C@@H]1OCCc2cccc(C)c21 | mice | ++ (5%≤ ++ <25%) |
| CNC[C@H]1OCCc2c(F)ccc(F)c21 | mice | ++ (5%≤ ++ <25%) |
| CNC[C@H]1OC[C@@H](C)c2ccccc21 | mice | ++ (5%≤ ++ <25%) |
| CNC[C@@H]1OCC(F)(F)c2ccccc21 | mice | ++ (5%≤ ++ <25%) |
| NC[C@@H]1OCCc2c(F)cccc21 [Example 29, (R)-(5-fluoroisochroman-1-yl)methanamine] | mice | ++++ (50%≤ ++++) |
| CNC[C@H]1OCCc2cc3c(cc21)OCO3 (stereo in doubt) | mice | + (LOQ≤ + <5%) |

Hi! Can you tell me DP: anti-depressant (SmartCube probability) for each of these compounds?
1. NC[C@H]1OCCc2c1ccc1c2OCO1
2. CNC[C@@H]1OC[C@H](F)c2ccccc21

Output:
1. ++++ (50%≤ ++++)
2. +++ (25%≤ +++ <50%)

For every record below, what is its DP: anti-depressant (SmartCube probability)?
1. CNC[C@H]1OCCc2c(F)cccc21
2. CCNC[C@H]1OCCc2cccc(F)c21
3. CNC[C@H]1OCCc2cc(F)ccc21
4. CNC[C@@H]1OCCc2c(F)ccc(F)c21
5. CNC[C@H]1OCCc2ccc3c(c21)OCO3

Output:
1: ++ (5%≤ ++ <25%); 2: ++ (5%≤ ++ <25%); 3: ++ (5%≤ ++ <25%); 4: ++++ (50%≤ ++++); 5: ++++ (50%≤ ++++)

Could you tell me DP: anti-depressant (SmartCube probability) for each of these compounds? They are listed below.
1. CNC[C@@H]1OCCc2cc(Cl)ccc21
2. Fc1cccc2c1[C@H](CNC1CCC1)OCC2
3. CNC[C@H]1OCCc2ccc3c(c21)OCC3

Output:
++++ (50%≤ ++++)
+++ (25%≤ +++ <50%)
++ (5%≤ ++ <25%)

Give DP: anti-depressant (SmartCube probability) for each of the items listed below.
1. CNC[C@@H]1OCCc2ccc3c(c21)COC3
2. CNC[C@@H]1OCCc2c1cccc2C(F)(F)F
3. CNC[C@@H]1OCCc2cccc(C#N)c21
4. NC[C@@H]1OCCc2cccc(F)c21 [Example 35, (R)-(8-fluoroisochroman-1-yl)methanamine]
5. CNC[C@H]1OCCc2c(OC)cccc21
6. CNC[C@@H]1OCCc2c(C)cccc21
7. CNC[C@@H]1OCCc2c(F)cccc21

Output:
++ (5%≤ ++ <25%)
++++ (50%≤ ++++)
+ (LOQ≤ + <5%)
++++ (50%≤ ++++)
+ (LOQ≤ + <5%)
++++ (50%≤ ++++)
++++ (50%≤ ++++)

Dear colleague, could you please provide DP: anti-depressant (SmartCube probability) for the compounds listed below?
1. CNC[C@@H]1OC[C@H](O)c2ccc3c(c21)OCO3 (single isomer, unassigned)
2. CNC[C@H]1OC[C@@H](O)c2ccc3c(c21)OCO3 (single isomer, unassigned)
3. CNC[C@H]1OCCc2c(Cl)cccc21
4. CNC[C@@H]1OCCc2ccc3c(c21)OCC3

Output:
+ (LOQ≤ + <5%)
+ (LOQ≤ + <5%)
++ (5%≤ ++ <25%)
++ (5%≤ ++ <25%)

Below are some compounds; for each one, tell me its DP: anti-depressant (SmartCube probability).
1. CNC[C@@H]1OCCc2c1ccc1c2OCO1
2. CNC[C@H]1OCCc2ccc(Cl)cc21
3. Cc1cccc2c1CCO[C@H]2CN [Example 73, (R)-(5-methylisochroman-1-yl)methanamine]
4. CNC[C@@H]1OCCc2cccc(F)c21
5. CNC[C@@H]1OCCc2cccc(Cl)c21
6. Cc1cccc2c1[C@H](CN)OCC2 [Example 75, (R)-(8-methylisochroman-1-yl)methanamine]

Output:
1: ++++ (50%≤ ++++); 2: + (LOQ≤ + <5%); 3: +++ (25%≤ +++ <50%); 4: ++++ (50%≤ ++++); 5: ++ (5%≤ ++ <25%); 6: ++ (5%≤ ++ <25%)

Count: 3. Required value per item: DP: anti-depressant (SmartCube probability).
1. CNC[C@H]1OCCc2ccc3c(c21)CCO3
2. CNC[C@H]1OCCc2c1ccc1c2OCO1
3. CN(C)C[C@@H]1OCCc2cccc(F)c21

Output:
1. ++ (5%≤ ++ <25%)
2. +++ (25%≤ +++ <50%)
3. ++ (5%≤ ++ <25%)

Each compound below has a reported value. Please supply its DP: anti-depressant (SmartCube probability).
1. CNC[C@H]1OCCc2ccc3c(c21)OC(F)(F)O3
2. CNC[C@@H]1OCCc2ccc3c(c21)OCCO3
3. NC[C@@H]1OCCc2c(Cl)cccc21 [Example 67, (R)-(5-chloroisochroman-1-yl)methanamine]
4. CNC[C@H]1OCC(F)(F)c2ccccc21
5. CNC[C@H]1OCCc2c(O)cc3c(c21)OCO3 (single isomer, unassigned)
6. CNC[C@@H]1OCCc2ccc3c(c21)OC(F)(F)O3

Output:
1: ++ (5%≤ ++ <25%); 2: ++ (5%≤ ++ <25%); 3: ++++ (50%≤ ++++); 4: ++ (5%≤ ++ <25%); 5: ++++ (50%≤ ++++); 6: + (LOQ≤ + <5%)
